Data provenance is ChEMBL document CHEMBL2440037.

Test system: Rattus norvegicus
protocolSummary: Neurotoxicity in po dosed rat assessed as sedative effect by rotorod test
Type: toxicity, organism-based
conditionNotes: in vivo
quantity: MED

[
  {
    "smilesStr": "CCOC(=O)c1ccc(C[C@H]2CC[C@H]3CN[C@H](C(=O)OCC)C[C@H]3C2)cc1.Cl",
    "targetDesc": "Rattus norvegicus",
    "testResult": "> 30 mg/kg"
  },
  {
    "smilesStr": "CCOC(=O)c1ccc(Cl)cc1O[C@H]1CC[C@H]2CN[C@H](C(=O)OCC)C[C@H]2C1.Cl",
    "targetDesc": "Rattus norvegicus",
    "testResult": "> 30 mg/kg"
  },
  {
    "smilesStr": "CCOC(=O)c1ccccc1S[C@H]1CC[C@H]2CN[C@H](C(=O)OCC)C[C@H]2C1.Cl",
    "targetDesc": "Rattus norvegicus",
    "testResult": "> 100 mg/kg"
  },
  {
    "smilesStr": "CCOC(=O)c1ccccc1O[C@H]1CC[C@H]2CN[C@H](C(=O)OCC)C[C@H]2C1.Cl",
    "targetDesc": "Rattus norvegicus",
    "testResult": "> 30 mg/kg"
  }
]
